Cited source: ChEMBL document CHEMBL2016487

EXPERIMENTAL TARGET: Ribosomal protein S6 kinase beta-1 (Homo sapiens, UniProt P23443)
Sequence (P23443 whole entry): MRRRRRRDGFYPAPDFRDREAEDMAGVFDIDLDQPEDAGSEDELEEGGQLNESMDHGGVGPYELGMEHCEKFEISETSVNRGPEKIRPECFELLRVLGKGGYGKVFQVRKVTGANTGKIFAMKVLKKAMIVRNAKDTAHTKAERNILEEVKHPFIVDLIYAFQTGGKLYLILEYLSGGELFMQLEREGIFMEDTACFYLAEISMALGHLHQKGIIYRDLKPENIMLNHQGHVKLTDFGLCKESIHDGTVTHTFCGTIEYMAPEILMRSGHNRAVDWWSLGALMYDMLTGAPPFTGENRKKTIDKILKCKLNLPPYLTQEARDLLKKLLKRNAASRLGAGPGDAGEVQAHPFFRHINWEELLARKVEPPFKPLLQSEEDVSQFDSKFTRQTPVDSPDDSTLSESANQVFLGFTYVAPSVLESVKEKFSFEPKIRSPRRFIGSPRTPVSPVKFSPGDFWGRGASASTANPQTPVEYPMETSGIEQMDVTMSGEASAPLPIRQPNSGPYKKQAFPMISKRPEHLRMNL
ASSAY OVERVIEW: Inhibition of p70S6K after 3 hrs by luciferase based chemiluminescence assay
OUTCOME MEASURE: IC50
Quick note: number first, unit second.

Exam item: Identify IC50 associated with the molecule Cc1c(NCCN2CCCC2)cc(C(=O)Nc2ccccc2)cc1N1CCN(c2ncnc3[nH]nc(Br)c23)CC1
Marked response: 1 nM

Exam item: Provide one value: measured IC50 of Cc1c(NCCN2CCCC2)cc(OCC(C)C)cc1N1CCN(c2ncnc3[nH]nc(Br)c23)CC1
Marked response: 1 nM

Exam item: Determine its reported IC50: Cc1c(NCCN2CCCC2)cc(CCC(C)(C)C)cc1N1CCN(c2ncnc3[nH]nc(Br)c23)CC1
Marked response: 2 nM

Exam item: Determine its reported IC50: CCc1n[nH]c2ncnc(N3CCN(c4cc(Cl)cc(NCCN5CCCC5)c4C)CC3)c12
Marked response: 3 nM

###

ASSAY OVERVIEW: Plasma concentration in mouse at 100 mg/kg after 4 hrs
Assay type: ADME, organism-based
Set-up: dose 100 mg/kg
OUTCOME MEASURE: concentration at 4 h (nM)
Quick note: give the figure in nM, leave out the unit.

Exam item: For the compound Cc1c(NCCN2CCCC2)cc(OCC(C)C)cc1N1CCN(c2ncnc3[nH]nc(Br)c23)CC1 , report concentration at 4 h.
Marked response: 1300

Exam item: Supply recorded concentration at 4 h for CCC(=O)c1cc(NCCN2CCCC2)c(C)c(N2CCN(c3ncnc4[nH]nc(Br)c34)CC2)c1 here.
Marked response: 2000

Exam item: Supply reported concentration at 4 h belonging to this compound: Cc1c(NCCN2CCCC2)cc(COCC(F)(F)F)cc1N1CCN(c2ncnc3[nH]nc(Br)c23)CC1
Marked response: 1200

Exam item: Give concentration at 4 h for Cc1c(NCCN2CCCC2)cc(C(=O)CCC(F)(F)F)cc1N1CCN(c2ncnc3[nH]nc(Br)c23)CC1 [XL-418]
Marked response: 3100

###

ASSAY OVERVIEW: Cmax in rat at 2.5 mg/kg, iv
Type: ADME, organism-based
Set-up: dose 2.5 mg/kg, route intravenous
CONDITION CONTEXT: in vivo
For each record, write down the corresponding Cmax.
Reply with just the number (in nM).

Exam item: Supply Cmax value. Item: Cc1c(NCCN2CCCC2)cc(C(=O)CCC(F)(F)F)cc1N1CCN(c2ncnc3[nH]nc(Br)c23)CC1
Marked response: 330

Exam item: Output Cmax of Cc1noc(-c2cc(NCCN3CCCC3)c(C)c(N3CCN(c4ncnc5[nH]nc(Br)c45)CC3)c2)n1
Marked response: 370

Exam item: Report Cmax, nothing else, for this molecule: Cc1c(NCCN2CCCC2)cc(COCC(F)(F)F)cc1N1CCN(c2ncnc3[nH]nc(Br)c23)CC1
Marked response: 390

###

ASSAY OVERVIEW: Plasma concentration in mouse at 30 mg/kg after 4 hrs
Assay type: ADME, organism-based
Parameters: dose 30 mg/kg
OUTCOME MEASURE: concentration at 4 h
Enter the number, and then the unit.

Exam item: Determine its reported concentration at 4 h: Cc1noc(-c2cc(NCCN3CCCC3)c(C)c(N3CCN(c4ncnc5[nH]nc(Br)c45)CC3)c2)n1
Marked response: 0.1 µM

###

ASSAY OVERVIEW: Cmax in monkey at 3 mg/kg, iv
Assay type: ADME, organism-based, Macaca mulatta
Parameters: dose 3 mg/kg, route intravenous
CONDITION CONTEXT: rhesus monkey, in vivo
OUTCOME MEASURE: Cmax

Exam item: Supply reported Cmax belonging to this molecule: Cc1c(NCCN2CCCC2)cc(C(=O)CCC(F)(F)F)cc1N1CCN(c2ncnc3[nH]nc(Br)c23)CC1
Marked response: 580 nM

###

Hi there, I'd appreciate the recorded metabolised at 0.5 h, 15 µM for every entry that follows.
ASSAY OVERVIEW: Drug metabolism in mouse liver microsomes at 15 uM after 30 mins
Assay type: ADME, Microsome
CONDITION CONTEXT: read-out: Drug metabolism
Give the number; % is assumed, so skip it.

Exam item: Supply recorded metabolised at 0.5 h, 15 µM for CCc1n[nH]c2ncnc(N3CCN(c4cc(Cl)cc(NCCN(C)C)c4C)CC3)c12 here.
Marked response: 29

Exam item: Identify measured metabolised at 0.5 h, 15 µM associated with CCc1n[nH]c2ncnc(N3CCN(c4cc(Cl)cc(NCCN5CCCC5)c4C)CC3)c12
Marked response: 18

Exam item: Please report the measured metabolised at 0.5 h, 15 µM for Cc1c(NCCN2CCCC2)cc(Cl)cc1N1CCN(c2ncnc3[nH]nc(Br)c23)CC1
Marked response: 19

Exam item: Read off the recorded metabolised at 0.5 h, 15 µM for Cc1c(NCCN(C)C)cc(Cl)cc1N1CCN(c2ncnc3[nH]nc(Br)c23)CC1
Marked response: 50

###

ASSAY OVERVIEW: Volume of distribution in dog at 3 mg/kg
Type: ADME, organism-based, Canis lupus familiaris
Design: dose 3 mg/kg
CONDITION CONTEXT: in vivo
OUTCOME MEASURE: Vd (L/kg)
Just the number please, in L/kg, no unit attached.

Exam item: # return recorded Vd for entry Cc1c(NCCN2CCCC2)cc(C(=O)CCC(F)(F)F)cc1N1CCN(c2ncnc3[nH]nc(Br)c23)CC1
Marked response: 17

###

Give measured Vd for each item. Keep answers brief.
ASSAY OVERVIEW: Volume of distribution in rat at 2.5 mg/kg
Assay type: ADME, organism-based
Set-up: dose 2.5 mg/kg
CONDITION CONTEXT: in vivo
The response must be a number in L/kg with no trailing unit.

Exam item: Consider the compound Cc1c(NCCN2CCCC2)cc(COCC(F)(F)F)cc1N1CCN(c2ncnc3[nH]nc(Br)c23)CC1 and give its recorded Vd.
Marked response: 9.7

Exam item: Output measured Vd for this item: Cc1noc(-c2cc(NCCN3CCCC3)c(C)c(N3CCN(c4ncnc5[nH]nc(Br)c45)CC3)c2)n1
Marked response: 14.2

Exam item: Supply reported Vd belonging to this compound: Cc1c(NCCN2CCCC2)cc(C(=O)CCC(F)(F)F)cc1N1CCN(c2ncnc3[nH]nc(Br)c23)CC1
Marked response: 12.9

###

ASSAY OVERVIEW: Half life in rat at 2.5 mg/kg, iv
Assay type: ADME, organism-based
Parameters: dose 2.5 mg/kg, route intravenous
CONDITION CONTEXT: in vivo
OUTCOME MEASURE: half-life (min)
Record the value in min, omitting the unit from your answer.

Exam item: State its half-life for this compound: Cc1noc(-c2cc(NCCN3CCCC3)c(C)c(N3CCN(c4ncnc5[nH]nc(Br)c45)CC3)c2)n1
Marked response: 144

Exam item: Respond only with half-life recorded for Cc1c(NCCN2CCCC2)cc(COCC(F)(F)F)cc1N1CCN(c2ncnc3[nH]nc(Br)c23)CC1
Marked response: 126

Exam item: State, in one line, measured half-life of Cc1c(NCCN2CCCC2)cc(C(=O)CCC(F)(F)F)cc1N1CCN(c2ncnc3[nH]nc(Br)c23)CC1
Marked response: 210

###

For each entry below, report its pIC50 value.
EXPERIMENTAL TARGET: RAC-alpha serine/threonine-protein kinase (Homo sapiens, UniProt P31749)
Sequence (P31749 whole entry): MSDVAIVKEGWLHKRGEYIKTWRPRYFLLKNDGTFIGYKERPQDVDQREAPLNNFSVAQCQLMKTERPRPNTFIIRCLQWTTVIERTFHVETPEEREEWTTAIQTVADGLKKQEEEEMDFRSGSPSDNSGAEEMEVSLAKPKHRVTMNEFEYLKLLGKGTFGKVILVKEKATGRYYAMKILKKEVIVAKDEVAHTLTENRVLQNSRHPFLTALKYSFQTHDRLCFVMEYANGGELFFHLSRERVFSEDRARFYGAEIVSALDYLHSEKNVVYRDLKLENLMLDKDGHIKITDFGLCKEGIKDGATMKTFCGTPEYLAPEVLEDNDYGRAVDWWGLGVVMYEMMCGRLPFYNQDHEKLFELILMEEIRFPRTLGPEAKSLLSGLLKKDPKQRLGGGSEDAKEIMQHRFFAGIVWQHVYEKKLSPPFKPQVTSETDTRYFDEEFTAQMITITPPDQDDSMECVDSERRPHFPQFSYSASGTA
ASSAY OVERVIEW: Inhibition of AKT1 after 3 hrs by luciferase based chemiluminescence assay
Please note pIC50 is a logarithmic value: minus log10 of concentration in mol/L. Answer with that number alone.

Exam item: Give the measured pIC50 for Cc1c(NCCN2CCCC2)cc(C(=O)CCC(F)(F)F)cc1N1CCN(c2ncnc3[nH]nc(Br)c23)CC1 [XL-418]
Marked response: 9.00

Exam item: Look up pIC50 of Cc1c(NCCN2CCCC2)cc(COCC(F)(F)F)cc1N1CCN(c2ncnc3[nH]nc(Br)c23)CC1 and report it.
Marked response: 8.10

Exam item: Given COC(=O)c1cc(NCCN2CCCC2)c(C)c(N2CCN(c3ncnc4[nH]nc(Br)c34)CC2)c1 , respond with its pIC50.
Marked response: 8.30

Exam item: Let me know recorded pIC50 for CCC(=O)c1cc(NCCN2CCCC2)c(C)c(N2CCN(c3ncnc4[nH]nc(Br)c34)CC2)c1 , thanks.
Marked response: 8.30

Exam item: Specify pIC50 for CCOc1cc(NCCN2CCCC2)c(C)c(N2CCN(c3ncnc4[nH]nc(Br)c34)CC2)c1 and stop.
Marked response: 7.25

Exam item: Return pIC50 (reported value) for this compound: Cc1c(NCCN2CCCC2)cc(CCC(C)(C)C)cc1N1CCN(c2ncnc3[nH]nc(Br)c23)CC1
Marked response: 8.15

Exam item: Specify measured pIC50 for Cc1c(NCCN2CCCC2)cc(C(=O)Nc2ccccc2)cc1N1CCN(c2ncnc3[nH]nc(Br)c23)CC1 .
Marked response: 7.89

Exam item: Please give measured pIC50 of the following entry: CCc1n[nH]c2ncnc(N3CCN(c4cc(Cl)cc(NCCN5CCCC5)c4C)CC3)c12
Marked response: 6.36

Exam item: Quote pIC50 reported for Cc1c(NCCN2CCCC2)cc(OCC(C)C)cc1N1CCN(c2ncnc3[nH]nc(Br)c23)CC1 please.
Marked response: 8.05

Exam item: Provide pIC50 value for the following compound: Cc1noc(-c2cc(NCCN3CCCC3)c(C)c(N3CCN(c4ncnc5[nH]nc(Br)c45)CC3)c2)n1
Marked response: 8.22

Exam item: For the compound Cc1c(NCCN2CCCC2)cc(Cl)cc1N1CCN(c2ncnc3[nH]nc(Br)c23)CC1 , report pIC50.
Marked response: 7.38
